This section presents binders with their documented kon values.
- System: T1, serum purified human Complement Factor D (human, UniProt P00746 26-253)
- T1 construct: Serum purified protein flowed over the captured antibodies; also called CFD; human CFD
- T1 sequence (P00746 26-253): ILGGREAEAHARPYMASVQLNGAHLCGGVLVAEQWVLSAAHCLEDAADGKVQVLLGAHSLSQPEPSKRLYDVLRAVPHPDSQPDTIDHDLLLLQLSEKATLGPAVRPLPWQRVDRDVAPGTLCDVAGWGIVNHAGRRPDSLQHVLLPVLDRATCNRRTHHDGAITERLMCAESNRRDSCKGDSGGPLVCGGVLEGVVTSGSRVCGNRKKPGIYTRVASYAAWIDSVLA
- Protocol Details: SPR Biacore, antibody on protein A chip, single cycle kinetics, 25 C
Write the answer as a number in M⁻¹ s⁻¹, unit excluded.

Query: // kon lookup, key: KCD119 TAF / KCD119 TAF (antibody, V domains shown, Humanized KCD119; tested as full antibody captured on protein A; also called D19 TAF) VH: EVQLVESGGGLVQPGGSLRLSCAASGYTFTDYYMNWVRQAPGKGLEWIGDINPNTGDTSYNADFKRRFTFSLDTSKSTAYLQMNSLRAEDTAVYYCTREGPSFAYWGQGTLVTVSS VL: DIQLTQSPSSLSASVGDRVTITCRSSQTIVHSNGDTYLEWYQQKPGKAPNLLIYKVSNRFSGVPSRFSGSGSGTDFTLTISSLQPEDFATYYCFQGSHVPPTFGQGTKVEIK
Reply: 1.38e+07

Query: // kon lookup, key: 31S34I54I59D84S / 54G101V (antibody, V domains shown, KCD119 TAF variant; full antibody captured on protein A; also called 31S34I54I59D845 / 54G101V; 3I534I54I59D84S / 54G101V) VH: EVQLVESGGGLVQPGGSLRLSCAASGYTFTSYYINWVRQAPGKGLEWIGDINPITGDTDYNADFKRRFTFSLDTSKSTAYLQMSSLRAEDTAVYYCTREGPSFAYWGQGTLVTVSS VL: DIQLTQSPSSLSASVGDRVTITCRSSQTIVHSNGDTYLEWYQQKPGKAPNLLIGKVSNRFSGVPSRFSGSGSGTDFTLTISSLQPEDFATYYCFQGSHVPVTFGQGTKVEIK
Reply: 4.42e+06

Query: // kon lookup, key: 34I54I59D84S / 54R101V (antibody, human IgG1, V domains shown, Human IgG1 kappa; also called OG1965) VH: EVQLVESGGGLVQPGGSLRLSCAASGYTFTDYYINWVRQAPGKGLEWIGDINPITGDTDYNADFKRRFTFSLDTSKSTAYLQMSSLRAEDTAVYYCTREGPSFAYWGQGTLVTVSS VL: DIQLTQSPSSLSASVGDRVTITCRSSQTIVHSNGDTYLEWYQQKPGKAPNLLIRKVSNRFSGVPSRFSGSGSGTDFTLTISSLQPEDFATYYCFQGSHVPVTFGQGTKVEIKR
Reply: 2.06e+07
